Data origin, for the record: the supplement of paper PMC10307832

- Tested on: NCI-H2023
- Assay method text: relative viability (nuclei count vs DMSO), 5 days (fraction); higher = more cells survive
- Cond: first compound 2.53 µM
Property measured: relative viability
Simply state the number, no unit and no words.

[[record]]
molecule = "CCCCCCCCCCCC1=C(O)C(=O)C=C(O)C1=O [Embelin] + CC(=O)c1c(C)c2cnc(Nc3ccc(N4CCNCC4)cn3)nc2n(C2CCCC2)c1=O [Palbociclib] (partner 0.5 µM)"
measured_result = 0.455

[[record]]
molecule = "CCCCCCCCCCCC1=C(O)C(=O)C=C(O)C1=O [Embelin] + Cc1nc(NC(=O)N2CCC[C@H]2C(N)=O)sc1-c1ccnc(C(C)(C)C(F)(F)F)c1 [Alpelisib] (partner 2 µM)"
measured_result = 0.651


Now take the following molecule into account.
Fill in the blank: the reported relative viability of CCCCCCCCCCCC1=C(O)C(=O)C=C(O)C1=O [Embelin] + CC(=O)Nc1cccc(-n2c(=O)n(C3CC3)c(=O)c3c(Nc4ccc(I)cc4F)n(C)c(=O)c(C)c32)c1 [Trametinib] (partner 0.02 µM) is ____.
0.613
